Just for reference, patent US9498463B2 is where these values come from.

Measured IC50 values are reported for all entries that follow.
system: Human hepatocellular carcinoma cell HepG2; assay: cells; settings: HepG2, read-out: IC50 (50% inhibition concentration)

Molecule	IC50 / µg/mL
C=C(C)C1CC[C@]2(C)C[C@H]1c1c(O)c3c(c(CC=C(C)C)c1O2)O[C@]12C(=C[C@@H]4CC1C(C)(C)O[C@]2(/C=C/C(C)C(=O)O)C4=O)C3=O (stereo partly shown)	1.9
C=C(C)[C@@H]1CC[C@@]2(C)CC1c1c(O)c3c(c(CC=C(C)C)c1O2)O[C@]12C(=C[C@@H]4CC1C(C)(C)O[C@]2(C/C=C(/C)C(=O)O)C4=O)C3=O	1
CC(C)=CCC/C(C)=C/Cc1c(O)c(CC=C(C)C)c2c(c1O)C(=O)C1=C[C@@H]3CC4C(C)(C)O[C@](C/C=C(\C)C(=O)O)(C3=O)[C@@]14O2	11
CC(C)=CCC[C@]1(C)C=Cc2c(O)c3c(c(CC=C(C)C)c2O1)O[C@]12C(=CC4CC1C(C)(C)O[C@]2(C/C=C(/C)C(=O)O)C4=O)C3=O	0.23
